Test: Stability of the analytes in rat plasma samples (freeze-thaw, short-term, long-term, autosampler)
Type: in vitro ADME
Details: concentration 100 (µg/mL), autosampler 8°C 12 h, n = 3
Reported Stability (%) Autosampler stability values are given for each entry in this list.
Write it as a number; the unit % goes unstated.

>>> recorded_measurement("C[C@@]12C[C@@]3(O)O[C@@H](O1)[C@]1(COC(=O)c4ccccc4)[C@H]3C[C@@]12O[C@@H]1O[C@H](CO)[C@@H](O)[C@H](O)[C@H]1O")
"−1.6"
>>> recorded_measurement("COc1ccc(-c2coc3cc(O[C@@H]4O[C@H](CO)[C@@H](O)[C@H](O)[C@H]4O)ccc3c2=O)cc1O [Calycosin-7-O-β-D-glucoside, calycosin-7-O-β-D-glucoside]")
3.5
>>> recorded_measurement("CC(=O)O[C@H]1[C@H](O[C@H]2CC[C@]34C[C@]35CC[C@]3(C)[C@@H]([C@@]6(C)CC[C@@H](C(C)(C)O)O6)[C@@H](O)C[C@@]3(C)[C@@H]5C[C@H](O[C@@H]3O[C@H](CO)[C@@H](O)[C@H](O)[C@H]3O)[C@H]4C2(C)C)OC[C@@H](O)[C@@H]1O [Astragaloside II, astragaloside II]")
"−5.4"

Now, please, on to the next compound.
So for CC(=O)OC1C(O)COC(OC2CCC34CC35CCC3(C)C(C6(C)CCC(C(C)(C)O)O6)C(O)CC3(C)C5CC(OC3OC(CO)C(O)C(O)C3O)C4C2(C)C)C1OC(C)=O (stereo not shown) [Astragaloside I, astragaloside I] , the logged Stability (%) Autosampler stability turned out to be −4.9
